Structures can show the parent of a compound that is named as a salt.

{"columns": ["molecule", "melting point (°C)"],
 "data": [
  ["CCC[C@H](NC(=O)Cc1cc(F)cc(F)c1)C(=O)Nc1nc(C)c(-c2ccccc2COC2CCN(C)CC2)s1 (as salt: phosphate)", 186],
  ["COc1cccc(CC(=O)N[C@@H](C)C(=O)Nc2ncc(-c3ccccc3COC3CCCCC3)s2)c1", 94],
  ["CCC[C@H](NC(=O)C(F)c1cc(F)cc(F)c1)C(=O)Nc1ncc(-c2ccccc2COC2CCCCC2)s1 (stereo partly shown) [compound 64]", 139],
  ["CC(C)C[C@H](NC(=O)Cc1cc(F)cc(F)c1)C(=O)Nc1ncc(-c2ccccc2COC2CCCCC2)s1", 67]
]}

###

As shown below, each of these compounds has a reported melting point value.

{"columns": ["compound", "melting point [°C]"],
 "data": [
  ["Cc1cccc(CC(=O)N[C@@H](C)C(=O)Nc2ncc(-c3ccccc3COC3CCCCC3)s2)c1 [compound 16]", 98],
  ["C[C@H](NC(=O)Cc1cc(F)cc(F)c1)C(=O)Nc1ncc(-c2ccccc2COC2CCCC2)s1 [compound 49]", 236],
  ["C[C@H](NC(=O)[C@H](F)c1cc(F)cc(F)c1)C(=O)Nc1ncc(-c2ccccc2COC2CCCCC2)s1 (racemic) [Compound No. 65]", 78],
  ["CC(C)(C)[C@H](NC(=O)Cc1cc(F)cc(F)c1)C(=O)Nc1ncc(-c2ccccc2COC2CCCCC2)s1 [compound 37]", 73]
]}

###

As shown below, each of these molecules has a reported melting point value.

{"columns": ["molecule", "melting point"],
 "data": [
  ["CC(C)C(NC(=O)Cc1cc(F)cc(F)c1)C(=O)Nc1ncc(-c2ccccc2COC2CCCCC2)s1 (stereo not shown)", "181 °C"],
  ["CCC[C@H](NC(=O)Cc1cc(F)cc(F)c1)C(=O)Nc1nc(C)c(-c2ccccc2COC2CCCCC2)s1", "94 °C"],
  ["CCOCc1ccccc1-c1cnc(NC(=O)C(C)NC(=O)Cc2cc(F)cc(F)c2)s1 (stereo not shown)", "165 °C"],
  ["CCC[C@H](NC(=O)Cc1cc(F)cc(F)c1)C(=O)Nc1nc(C(C)C)c(-c2ccccc2COC2CCCCC2)s1", "74 °C"],
  ["CC(C)[C@H](NC(=O)Cc1cc(F)cc(F)c1)C(=O)Nc1ncc(-c2ccccc2COC2CCCCC2)s1", "87 °C"],
  ["CC(NC(=O)Cc1cc(F)cc(F)c1)C(=O)Nc1ncc(-c2ccccc2COC2CCCCC2)s1 (stereo not shown)", "126 °C"],
  ["C[C@H](NC(=O)Cc1cc(F)cc(F)c1)C(=O)Nc1ncc(-c2ccccc2COc2ccccc2)s1", "78 °C"]
]}

###

{"columns": ["compound", "melting point (°C)"],
 "data": [
  ["CC(C)COCc1ccccc1-c1cnc(NC(=O)C(C)NC(=O)Cc2cc(F)cc(F)c2)s1 (stereo not drawn) [compound 4]", 181],
  ["CC(C)OCc1cccc(-c2cnc(NC(=O)[C@H](C)NC(=O)Cc3cc(F)cc(F)c3)s2)c1 [compound 45]", 136],
  ["CCC[C@H](NC(=O)C(=O)c1cc(F)cc(F)c1)C(=O)Nc1ncc(-c2ccccc2COC2CCCCC2)s1 [compound 60]", 77]
]}

From: patent US7288659B2
